# ASSAY_DETAILS: miR-122 inhibitors in Huh7 reporter cells, dose response, cell-based, Huh7 psiCHECK-miR122, Renilla luciferase, cherry-pick (AID 652053)
# PROTOCOL_CONDITIONS: 48 h; series mostly up to 35 µM
Among all 1,300 compounds or so, about 930 (72%) were called active. So high a share suggests a set chosen from earlier hits. Not all results are given here. Measured potencies and affinities stand elsewhere.
OBSERVATION_TYPE: outcome

The cases that follow already have their outcome on record.
Quick check: outcome of COc1ccc(C(=O)Oc2ccc(C(=S)N3CCOCC3)cc2)cc1 ?
inactive

Also check CC(C)C(=O)Nc1ccc2c(c1)C(=O)N(C)[C@H]1CC[C@@H](CC(=O)NCC3CC3)O[C@@H]1CO2
inactive

Also check CCN(C[C@@H]1[C@@H](c2ccccc2)[C@@H](CO)N1C(=O)COC)S(C)(=O)=O
inactive

Also check O=C(C(c1ccccc1)c1ccccc1)N1CCOCC1
inactive

Moving on to the next molecule.
Quick check: outcome of O=C(Nc1ccccn1)c1cccc(S(=O)(=O)N2CCOCC2)c1 ?
inactive

---

# ASSAY_DETAILS: miR-122 inhibitors in Huh7 reporter cells, dose response, cell-based, Huh7 psiCHECK-miR122, Renilla luciferase, cherry-pick (AID 652053)
# PROTOCOL_CONDITIONS: 48 h; series mostly up to 35 µM
Screen size: about 1,300 compounds; about 930 (72%) were called active. The set was probably picked from earlier hits. Only a sample is shown. Entries with a potency or affinity are not part of this list.
OBSERVATION_TYPE: outcome

The cases that follow already have their outcome on record.
Quick check: outcome of CCC(=O)N(C)C[C@@H]1[C@@H](c2ccc(C3=CCCC3)cc2)[C@H](CO)N1C(=O)CC ?
inactive

Also check Cc1ccc2nc(C)c(C)nc2c1N
inactive

Also check COc1ccc(N(Cc2ccccc2)S(=O)(=O)c2cccc(C(=O)NC3=NCCS3)c2)cc1
inactive

Also check COC(=O)C[C@@H]1CC[C@@H]2[C@@H](COc3ccc(NS(=O)(=O)c4ccc(C)cc4)cc3C(=O)N2C)O1
inactive

Also check CC(C)NC(=O)Nc1ccc2c(c1)CC(=O)N([C@H](C)CO)C[C@@H](C)[C@@H](CN(C)Cc1ccc(Oc3ccccc3)cc1)O2
inactive

More entries:
Quick check: outcome of OC(COC(c1ccc(Cl)cc1)c1ccc(Cl)cc1)CN1CCCC1 (centres undefined) ?
inactive

Also check C[C@H](CO)N1C[C@H](C)[C@@H](CN(C)Cc2ccncc2)Oc2ccc(NC(=O)Nc3cccc4ccccc34)cc2CC1=O
inactive

Also check CCC1=NN(C(=O)c2ccccc2O)C(O)(c2ccccc2)C1 (centres undefined)
inactive

Also check CCCNC(=O)N1C[C@H]2[C@@H](c3ccccc31)[C@@H](CO)N2Cc1ccc(F)cc1
inactive

Also check CCc1nc2ccc(C(=O)N3CCN(C(=O)c4ccco4)CC3)cn2c1N(C)C(=O)COc1ccccc1
inactive

Also check C=CC(C)n1c(Br)nc2c1c(=O)[nH]c(=O)n2C (centres undefined)
inactive

Also check CC1CCN(C(=S)c2ccc(O)cc2)CC1
inactive

---

# ASSAY_DETAILS: miR-122 inhibitors in Huh7 reporter cells, dose response, cell-based, Huh7 psiCHECK-miR122, Renilla luciferase, cherry-pick (AID 652053)
# PROTOCOL_CONDITIONS: 48 h; series mostly up to 35 µM
Among all 1,300 compounds or so, about 930 (72%) were called active. So high a share suggests a set chosen from earlier hits. A selection follows. Potency and affinity values are given separately.
OBSERVATION_TYPE: outcome

Quick check: outcome of CCC(=O)N1[C@H](CN(C)C(C)=O)[C@@H](c2ccc(C3=CCCC3)cc2)[C@@H]1CO ?
inactive

Also check C[C@H](CO)N1C[C@H](C)[C@H](CN(C)C(=O)Nc2cccc3ccccc23)Oc2ccc(NC(=O)Nc3cccc4ccccc34)cc2CC1=O
inactive

Also check Cc1ccc(SC(C)C(=O)NCCC2=CCCCC2)cc1 (stereo not given)
inactive

Also check Cc1cccc(OCCCC(=O)Nc2ccc(Cl)c(S(=O)(=O)N3CCOCC3)c2)c1
inactive

Also check Cc1ccc(NC(=O)COc2ccc(Br)cc2CO)cc1
inactive

More entries:
Quick check: outcome of CC(=O)N(C)C[C@H]1[C@H](c2ccc(-c3cccnc3)cc2)[C@@H](CO)N1C(=O)C1CC1 ?
inactive

Also check Cn1c(=O)c2cc(S(=O)(=O)NCCC(=O)NCCC3=CCCCC3)ccc2n(C)c1=O
inactive

Also check CCOc1ccc(N2C(=O)c3cccnc3C2Nc2ccc(F)cc2)cc1 (stereo not given)
inactive

Also check Cc1c(C(=O)Nc2ccccn2)oc2ccccc12
inactive

Also check Cc1ccc(NC(=O)N(C2=NCC(C)S2)c2ccccc2)cc1 (stereo not given)
inactive
